Where do the numbers come from? From patent US11351173B2.

# measurement-notes: Compound solubility in water
# assay-context: water, Compound Solubility in Water
result-type: solubility (µg/mL)

- compound: "CNCCCCOc1ccc(NC(=O)c2ccn3c(C)cc(C)nc23)cc1"
  measure-unit: "µg/mL"
  bound-type: "="
  measured-result: 20.8
- compound: "CNc1cc(C)n2ccc(C(=O)NC3c4ccccc4C4CC3C4)c2n1 (stereo not drawn)"
  measure-unit: "µg/mL"
  bound-type: "="
  measured-result: 0.3
- compound: "COCCOCc1cc(C)n2ccc(C(=O)N[C@H]3CCCc4ccccc43)c2n1"
  measure-unit: "µg/mL"
  bound-type: "="
  measured-result: 25.2
- compound: "Cc1cc(C)n2ccc(C(=O)Nc3ccc(-c4cocn4)cc3)c2n1"
  measure-unit: "µg/mL"
  bound-type: "<"
  measured-result: 1.5
- compound: "CC[C@@H](NC(=O)c1ccn2c(C)cc(C)nc12)c1ccccc1"
  measure-unit: "µg/mL"
  bound-type: "="
  measured-result: 1.2
- compound: "CC[C@H](NC(=O)c1ccn2c(C)cc(C)nc12)c1ccccc1"
  measure-unit: "µg/mL"
  bound-type: "="
  measured-result: 1.4
